Hi there, I'd appreciate the recorded Percent Effect for every entry that follows.
biological target: Protein translocase subunit SecA (Escherichia coli (strain K12)); assay: Assay to Identify E. coli SecA ATPase Inhibitors; format: functional; design: scale not given: direction of the effect not stated beside the values; conditions: 30 µM
Entries with a potency or affinity are not part of this list.
Numbers only, in %.

As a guide, the following entries are already answered.
* Cc1cccnc1NC(=O)CC1(Cn2cnnn2)CCCCC1 | -5.51
* CC(C)(C)C(=O)NCCC(=O)NC(C)(C)c1ccc2c(c1)OCCO2 | -1.46
* NC(=O)c1csc(C(=O)N2CCCCC2Cn2cccn2)c1 (stereo not given) | -5.35
* COCC(=O)N1CC[C@@H]2CN(Cc3cccc(Cl)c3)S(=O)(=O)[C@@H]2CC1 | -3.3
* COc1ccc(-n2ccc(C(=O)N3CCC(C(N)=O)C3)n2)cc1 (stereo not given) | -7.71
* CCN(Cc1cccc(Cl)c1)Cc1nc2c(cnn2C)c(=O)[nH]1 | -5.2

Record Percent Effect for all entries; do not skip any.
1. Cn1ccc(CN2CCC(COC3CCCC3)CC2)cc1=O
2. COC(=O)N1CCCN(C(=O)NCc2ccc(Cl)s2)CC1

[-2, -1.83]

###

target: Tyrosyl-tRNA synthetase, putative (Trypanosoma cruzi (strain CL Brener)); experiment: Trypanosoma cruzi tyrosyl tRNA synthetase (TcYRS) _High Tyrosine SOP; type: functional; set-up: scale not given: in the data most compounds retested in dose-response had high values; settings: 30 µM
READOUT LABEL: Percent Effect (%)
Answers are plain numbers, in %.

Record Percent Effect for all entries; do not skip any.
1. CS(=O)(=O)N1CCOCC2(CN(Cc3ccsc3)CCO2)C1 (stereo not drawn)
2. Cc1ccc(CN(Cc2c[nH]cn2)C2CC(C)(C)NC(C)(C)C2)o1
3. c1cnnc(N2CCCC(NCc3ccc(-n4cccn4)cc3)C2)c1 (stereo not drawn)

[5.21, 4.3, 0.952]

###

Hi there, I'd appreciate the recorded Percent Effect for every entry that follows.
target: Chromo domain-containing protein 1 (Saccharomyces cerevisiae (strain ATCC 204508 / S288c) (Baker's yeast)) (UniProt P32657); experiment: ScCHD-1 Enzyme Inhibition Assay; type: functional; design: scale not given: in the data most compounds retested in dose-response had high values; details: 30 µM
Sequence (P32657 whole entry, the tested form may be a part): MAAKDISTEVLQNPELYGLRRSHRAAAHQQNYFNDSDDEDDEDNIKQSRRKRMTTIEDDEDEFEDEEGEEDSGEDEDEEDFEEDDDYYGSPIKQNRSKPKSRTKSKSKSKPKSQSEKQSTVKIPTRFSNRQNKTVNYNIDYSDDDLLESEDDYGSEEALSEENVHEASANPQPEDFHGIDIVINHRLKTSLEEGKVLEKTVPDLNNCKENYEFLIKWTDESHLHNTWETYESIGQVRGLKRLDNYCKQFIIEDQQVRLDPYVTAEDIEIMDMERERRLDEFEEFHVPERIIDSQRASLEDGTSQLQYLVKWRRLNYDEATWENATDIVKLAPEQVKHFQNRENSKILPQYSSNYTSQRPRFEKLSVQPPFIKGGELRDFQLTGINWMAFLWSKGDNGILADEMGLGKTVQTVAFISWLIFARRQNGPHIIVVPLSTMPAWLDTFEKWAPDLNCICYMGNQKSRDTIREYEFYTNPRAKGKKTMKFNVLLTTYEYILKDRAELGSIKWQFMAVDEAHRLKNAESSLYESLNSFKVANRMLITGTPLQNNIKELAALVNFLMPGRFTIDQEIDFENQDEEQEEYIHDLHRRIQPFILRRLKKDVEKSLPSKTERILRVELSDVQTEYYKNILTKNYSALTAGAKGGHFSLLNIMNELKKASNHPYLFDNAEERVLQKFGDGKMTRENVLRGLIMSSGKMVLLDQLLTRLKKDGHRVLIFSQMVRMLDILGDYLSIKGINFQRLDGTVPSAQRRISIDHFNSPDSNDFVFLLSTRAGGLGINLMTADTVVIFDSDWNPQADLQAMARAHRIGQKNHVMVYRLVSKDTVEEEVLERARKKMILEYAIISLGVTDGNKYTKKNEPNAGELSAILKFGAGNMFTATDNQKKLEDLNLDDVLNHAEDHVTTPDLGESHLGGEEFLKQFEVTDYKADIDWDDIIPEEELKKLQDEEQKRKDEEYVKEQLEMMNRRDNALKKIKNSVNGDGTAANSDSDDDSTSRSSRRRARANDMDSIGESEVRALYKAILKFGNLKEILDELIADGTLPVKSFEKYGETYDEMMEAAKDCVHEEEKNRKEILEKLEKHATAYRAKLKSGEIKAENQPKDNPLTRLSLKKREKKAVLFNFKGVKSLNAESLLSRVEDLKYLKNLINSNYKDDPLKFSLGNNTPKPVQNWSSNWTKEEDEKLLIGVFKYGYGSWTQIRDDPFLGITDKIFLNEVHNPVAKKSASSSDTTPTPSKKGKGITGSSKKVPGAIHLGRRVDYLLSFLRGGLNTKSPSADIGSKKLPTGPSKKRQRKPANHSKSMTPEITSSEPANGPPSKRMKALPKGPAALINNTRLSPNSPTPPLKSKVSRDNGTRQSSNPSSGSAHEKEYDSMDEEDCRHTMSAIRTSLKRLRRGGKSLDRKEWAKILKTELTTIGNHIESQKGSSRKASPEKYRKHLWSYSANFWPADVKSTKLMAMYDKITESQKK

As a guide, the following entries are already answered.
* CC(C)Oc1ncc(C(=O)N2CCC(NC(=O)C3CC3)CC2)cc1Cl | -0.607%
* CC(C#N)CSc1ccccc1NCC(=O)Nc1ccc(F)cc1 (stereo not given) | -0.597%
* Cn1cccc1C(=O)N1CCN(Cc2ccncc2)c2ncccc2C1 | -5.07%
* O=C(Cc1ccccc1F)N1CCN(C(=O)c2ccoc2)CC1 | -2.49%

Please report Percent Effect for the following compound: Cc1cnn(CC2CN(CCN3CCCC3=O)CCO2)c1 (stereo not given) -4.96%

###

molecular target: Ubiquitin-activating enzyme e1, putative (Leishmania donovani (strain BPK282A1)); assay: Leishmania donovani Ubiquitin Activating Enzyme (LdE1); assay type: functional; set-up: scale not given: direction of the effect not stated beside the values; settings: 30 µM
Measured potencies and affinities stand elsewhere.
READOUT LABEL: Percent Effect (%)
Answers are plain numbers, in %.

As a guide, the following entries are already answered.
- Cc1nn(C)c(N2CCOCC2)c1CNC1CCN(C(C)(C)C)CC1: 20.2
- Cc1nc(CN(Cc2ccccc2)C2CCS(=O)(=O)C2)oc1C (stereo not given): 15.8
- CCN(Cc1cccc(Cl)c1)Cc1nc2c(cnn2C)c(=O)[nH]1: 15.6

Record Percent Effect for all entries; do not skip any.
1. Cc1c(C(=O)NC(CN2CCCC2=O)c2ccccc2)cnn1C (stereo not given)
2. CC(C)CC(=O)N1CCc2nc(N3CCOCC3)nc(NC(C)C)c2C1

10.5
2.67
